assay: Volume of distribution at steady state in rat at 1 mg, iv; assay type: ADME, organism-based; settings: in vivo, read-out: Vdss
PROPERTY MEASURED: Vd (L/kg)
Quick note: give the figure in L/kg, leave out the unit.

Looking for the measured Vd of O=C(CN1C[C@H](NC(=O)c2ccc(Cl)s2)[C@@H](OCCO)C1)Nc1ccc(-n2ccccc2=O)cc1F , can you help?
1.1

----------
For each of the compounds below, state its Papp.
experiment: Permeability across cell membrane; assay type: ADME; settings: not told; read-out: permeability
Numeric answer plus unit only.

Looking for the measured Papp of O=C(Cn1cnc(NC(=O)c2ccc(Cl)s2)n1)Nc1ccc(-n2ccccc2=O)cc1F , can you help?
0.9 ×10⁻⁶ cm/s

Looking for the measured Papp of O=C(CN1C[C@H](NC(=O)c2ccc(Cl)s2)[C@@H](O)C1)Nc1ccc(-n2ccccc2=O)cc1F , can you help?
1.5 ×10⁻⁶ cm/s

Looking for the measured Papp of O=C(CN1C[C@H](NC(=O)c2ccc(Cl)s2)[C@@H](OCCO)C1)Nc1ccc(-n2ccccc2=O)cc1F , can you help?
0.4 ×10⁻⁶ cm/s

----------
assay: Aqueous solubility of the compound; assay type: physicochemical; settings: aqueous; read-out: solubility
For each of the compounds below, state its solubility.

Looking for the measured solubility of O=C(CN1CC[C@@H](NC(=O)c2ccc(Cl)s2)C1)Nc1ccc(-n2ccccc2=O)cc1F , can you help?
0.197 mg/mL

Looking for the measured solubility of CN1CCC(N2CCN(C(=O)Cc3csc(NC(=O)c4ccc(Cl)s4)n3)CC2)CC1 , can you help?
> 0.62 mg/mL

Looking for the measured solubility of CN1CCC(N2CCN(C(=O)Cn3cnc(NC(=O)c4ccc(Cl)s4)n3)CC2)CC1 , can you help?
> 0.6 mg/mL

Looking for the measured solubility of O=C(Cn1cnc(NC(=O)c2ccc(Cl)s2)n1)Nc1ccc(-n2ccccc2=O)cc1F , can you help?
0.001 mg/mL

Looking for the measured solubility of O=C(CN1CC[C@H](NC(=O)c2ccc(Cl)s2)C1)Nc1ccc(-n2ccccc2=O)cc1F , can you help?
0.166 mg/mL

Looking for the measured solubility of CN1CCC(N2CCN(C(=O)Cc3csc(NC(=O)c4ccc(Cl)cc4)n3)CC2)CC1 , can you help?
> 0.62 mg/mL

Looking for the measured solubility of CN1CCC(N2CCN(C(=O)Cn3ccc(NC(=O)c4ccc(Cl)s4)n3)CC2)CC1 , can you help?
> 0.601 mg/mL

Looking for the measured solubility of O=C(Cn1nnc(NC(=O)c2ccc(Cl)s2)n1)Nc1ccc(-n2ccccc2=O)cc1F , can you help?
< 0.001 mg/mL

----------
For each of the compounds below, state its logD.
assay: Lipophilicity, log D of the compound; assay type: physicochemical; settings: octanol/water

Looking for the measured logD of O=C(Cn1nnc(NC(=O)c2ccc(Cl)s2)n1)Nc1ccc(-n2ccccc2=O)cc1F , can you help?
2.4

Looking for the measured logD of CN1CCC(N2CCN(C(=O)Cn3ccc(NC(=O)c4ccc(Cl)s4)n3)CC2)CC1 , can you help?
0.1

Looking for the measured logD of O=C(Nc1nc(CC(=O)N2CCN(CC(=O)N3CCCC3)CC2)cs1)c1ccc(Cl)s1 , can you help?
2.1

Looking for the measured logD of CN1CCC(N2CCN(C(=O)Cc3csc(NC(=O)c4ccc(Cl)s4)n3)CC2)CC1 , can you help?
1

Looking for the measured logD of CN1CCC(N2CCN(C(=O)Cc3csc(NC(=O)c4ccc(Cl)cc4)n3)CC2)CC1 , can you help?
0.6

Looking for the measured logD of CN1CCC(N2CCN(C(=O)Cn3cnc(NC(=O)c4ccc(Cl)s4)n3)CC2)CC1 , can you help?
-0.5

Looking for the measured logD of O=C(Cc1csc(NC(=O)c2ccc(Cl)cc2)n1)Nc1ccc(-n2ccccc2=O)cc1F , can you help?
> 3

Looking for the measured logD of O=C(Cc1csc(NC(=O)c2ccc(Cl)s2)n1)Nc1ccc(-n2ccccc2=O)cc1F , can you help?
> 3

Looking for the measured logD of O=C(CN1CC[C@H](NC(=O)c2ccc(Cl)s2)C1)Nc1ccc(-n2ccccc2=O)cc1F , can you help?
2.3
